study_target: human CCR8 (human) (UniProt P51685)
Sequence (P51685 whole entry): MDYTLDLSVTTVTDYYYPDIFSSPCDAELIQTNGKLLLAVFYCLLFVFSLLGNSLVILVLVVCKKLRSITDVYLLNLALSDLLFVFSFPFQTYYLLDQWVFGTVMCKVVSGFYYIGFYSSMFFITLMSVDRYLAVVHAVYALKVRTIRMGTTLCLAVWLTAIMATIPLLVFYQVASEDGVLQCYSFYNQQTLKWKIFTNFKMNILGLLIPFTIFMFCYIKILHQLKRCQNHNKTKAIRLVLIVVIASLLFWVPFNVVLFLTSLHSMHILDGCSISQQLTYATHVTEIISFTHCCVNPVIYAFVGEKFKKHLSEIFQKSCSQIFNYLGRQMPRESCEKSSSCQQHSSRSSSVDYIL
experiment_description: cell-based or functional assay
Recorded measurements of IC50 ratio (WT IC50/mutant IC50), one per entry
Note: the reply should be a number with no unit written.

# query: IC50 ratio (WT IC50/mutant IC50) of entry h10A11 IGKV4-1/IGHV3-73 I51L (antibody, name in Kabat numbering, V domains shown) VH: EVQLVESGGGLVQPGGSLKLSCAASGFAFNTYALYWVRQASGKGLEWVGRLRSKSNNYATYYADSVKDRFTISRDDSKNTAYLQMNSLKTEDTAVYYCTRARFYYSDYGYAMDYWGQGTLVTVSS VL: DIVMTQSPDSLAVSLGERATINCRSSKSLLHSNGNTYLYWYQQKPGQPPKLLIYRMSNLASGVPDRFSGSGSGTDFTLTISSLQAEDVAVYYCMQHLEYPLTFGQGTKLEIKR 0.22

Fill in: IC50 ratio (WT IC50/mutant IC50) of h10A11 IGKV4-1/IGHV3-73 V63L (antibody, name in Kabat numbering, V domains shown) VH: EVQLVESGGGLVQPGGSLKLSCAASGFAFNTYALYWVRQASGKGLEWVGRIRSKSNNYATYYADSLKDRFTISRDDSKNTAYLQMNSLKTEDTAVYYCTRARFYYSDYGYAMDYWGQGTLVTVSS VL: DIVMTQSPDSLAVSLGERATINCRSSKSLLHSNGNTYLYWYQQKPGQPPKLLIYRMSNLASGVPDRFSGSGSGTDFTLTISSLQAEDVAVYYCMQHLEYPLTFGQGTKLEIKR is ___ 0.56

Field request: IC50 ratio (WT IC50/mutant IC50) | item: h10A11 IGKV4-1/IGHV3-73 L34I (antibody, name in Kabat numbering, V domains shown) VH: EVQLVESGGGLVQPGGSLKLSCAASGFAFNTYAIYWVRQASGKGLEWVGRIRSKSNNYATYYADSVKDRFTISRDDSKNTAYLQMNSLKTEDTAVYYCTRARFYYSDYGYAMDYWGQGTLVTVSS VL: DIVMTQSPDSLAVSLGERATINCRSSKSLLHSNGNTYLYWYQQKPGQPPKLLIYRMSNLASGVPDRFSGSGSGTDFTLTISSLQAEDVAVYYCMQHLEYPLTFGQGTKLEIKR 0.43

Data request, read-out IC50 ratio (WT IC50/mutant IC50), for h10A11 IGKV4-1/IGHV3-73 Y59F (antibody, name in Kabat numbering, V domains shown) VH: EVQLVESGGGLVQPGGSLKLSCAASGFAFNTYALYWVRQASGKGLEWVGRIRSKSNNYATYFADSVKDRFTISRDDSKNTAYLQMNSLKTEDTAVYYCTRARFYYSDYGYAMDYWGQGTLVTVSS VL: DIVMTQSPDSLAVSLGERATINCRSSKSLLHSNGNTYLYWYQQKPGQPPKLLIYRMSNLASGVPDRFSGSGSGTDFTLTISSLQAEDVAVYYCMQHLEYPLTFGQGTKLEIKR 0.03
